The reported measurements were obtained from patent US4876280A.

pIC50: −log10 of the molar value.
Measurement record for HMG-CoA reductase (Rattus norvegicus, UniProt P51639); quantity recorded: pIC50.
parameter measured: pIC50

| molecule | pIC50 |
| --- | --- |
| C[C@@H]1C=C[C@H](C)[C@H](c2ccc(F)cc2)[C@H]1/C=C/C(O)CC(O)CC(=O)O (stereo partly drawn) [Example 5] | 5.92 |

(P) CC[C@H](C)C(=O)O[C@H]1CCC=C2C=C[C@H](C)[C@H](CC[C@@H]3C[C@@H](O)CC(=O)O3)[C@H]21 [Compactin, reference compound]
(Q) C[C@@H]1C=C[C@H](C)[C@@H](/C=C/C2CC(O)CC(=O)O2)[C@@H]1c1ccc(F)cc1 (stereo partly drawn) [Example 74]
[Q] Could you tell me which of these two has the smaller pIC50 figure? First: P Second: Q Refer to your chosen item by its label in the answer.
[A] Q
(Q: 3.94, P: 6.03)

====

Test system: 3β-hydroxysterol synthesis
experiment: Test C: In Vivo Cholesterol Biosynthesis Inhibition Test
Design: species or system rat (male Wistar Royal Hart)
condition notes: Rattus norvegicus; Test C; male Wistar Royal Hart rats; read-out: ED50 (50% inhibition of 3β-hydroxysterol synthesis)
parameter measured: ED50 (mg/kg)
Note: unit mg/kg is implicit; provide only the numeric part.

Consider the following illustrative entries.
| compound | parameter measured | value units | readout value |
| --- | --- | --- | --- |
| C[C@@H]1C=C[C@H](C)[C@@H](/C=C/C2CC(O)CC(=O)O2)[C@@H]1c1ccc(F)cc1 (stereo partly shown) | ED50 | mg/kg | 20 |
| C[C@@H]1C=C[C@H](C)[C@H](c2ccc(F)cc2)[C@H]1/C=C/C(O)CC(O)CC(=O)O (stereo partly shown) | ED50 | mg/kg | 2.07 |
| C[C@@H]1C=C[C@H](C)[C@H](c2ccc(F)cc2)[C@H]1/C=C/C1CC(O)CC(=O)O1 (stereo partly shown) | ED50 | mg/kg | 2.4 |

Pending compound:
[Q] Entry CC[C@H](C)C(=O)O[C@H]1CCC=C2C=C[C@H](C)[C@H](CC[C@@H]3C[C@@H](O)CC(=O)O3)[C@H]21 [Compactin, reference compound] , system 3β-hydroxysterol synthesis: what ED50 was measured?
[A] 3.5

====

measured target: HMG-CoA reductase (Rattus norvegicus, UniProt P51639)
Sequence (P51639 1-887): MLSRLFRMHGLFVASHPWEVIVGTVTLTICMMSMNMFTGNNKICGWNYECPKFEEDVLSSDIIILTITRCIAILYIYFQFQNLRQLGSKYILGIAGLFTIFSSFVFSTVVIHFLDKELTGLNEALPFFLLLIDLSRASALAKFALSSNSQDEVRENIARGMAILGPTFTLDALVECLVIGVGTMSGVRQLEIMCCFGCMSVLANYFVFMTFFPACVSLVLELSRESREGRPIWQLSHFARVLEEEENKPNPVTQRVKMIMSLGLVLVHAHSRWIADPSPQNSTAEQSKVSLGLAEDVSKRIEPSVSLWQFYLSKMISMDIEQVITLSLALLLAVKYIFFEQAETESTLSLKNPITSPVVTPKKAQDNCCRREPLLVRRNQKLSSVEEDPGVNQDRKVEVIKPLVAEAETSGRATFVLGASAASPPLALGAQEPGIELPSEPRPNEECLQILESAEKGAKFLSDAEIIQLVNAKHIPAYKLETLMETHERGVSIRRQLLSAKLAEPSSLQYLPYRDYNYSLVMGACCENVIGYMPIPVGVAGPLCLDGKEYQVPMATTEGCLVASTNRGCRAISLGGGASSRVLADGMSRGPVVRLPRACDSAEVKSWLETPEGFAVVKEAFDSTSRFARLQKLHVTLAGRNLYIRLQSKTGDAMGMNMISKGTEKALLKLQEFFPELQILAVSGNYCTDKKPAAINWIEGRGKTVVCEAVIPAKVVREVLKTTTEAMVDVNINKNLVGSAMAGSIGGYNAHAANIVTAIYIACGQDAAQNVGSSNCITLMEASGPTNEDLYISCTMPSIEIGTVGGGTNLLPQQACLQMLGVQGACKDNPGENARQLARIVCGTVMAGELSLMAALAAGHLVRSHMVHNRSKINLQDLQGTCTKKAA
parameter measured: IC50 (µM)

(P) C[C@@H]1C=C[C@H](C)[C@H](c2ccc(F)cc2)[C@H]1/C=C/[C@@H]1C[C@@H](O)CC(=O)O1 [Example 3A]
(Q) O=C1CC(O)CC(/C=C/[C@H]2CC=CC[C@@H]2c2ccccc2)O1 (stereo partly shown) [Example 67B]
(R) CCOC(=O)CC(O)CC(O)/C=C/[C@@H]1[C@@H](c2ccc(F)cc2)[C@H](C)CC[C@H]1C(C)C (stereo partly shown) [Example 86]
(S) C[C@@H]1C=C[C@H](C)[C@H](c2ccc(F)cc2)[C@H]1/C=C/[C@@H](O)C[C@@H](O)CC(=O)O [Example 5A]
[Q] Hey, quick one: sort these by IC50, low to high? List labels; respect the requested ordering.
[A] S, P, R, Q
(S: 0.54 µM, P: 3.23 µM, R: 141 µM, Q: 1370 µM)
